This collection of values is drawn from patent US12673944B2.

system: GM1 production in Jurkat cells; assay: cells; format: cell-based; details: Homo sapiens, Jurkat, 72 h
pIC50: −log10 of the molar value.
Output met for pIC50 not less than 8; output not met otherwise.

{"molecule": "COc1cc2c(cc1-c1cccc(Cl)c1)OCC(C)(C)C2NC(=O)O[C@@H]1CN2CCC1CC2 (stereo partly shown) [Example 351]", "qualitative_label": "met"}
{"molecule": "COc1cccc(F)c1-c1ccc2c(c1)OCC(C)(C)C2NC(=O)O[C@@H]1CN2CCC1CC2 (stereo partly shown) [Example 122]", "qualitative_label": "met"}
{"molecule": "CC1(C)COc2cc(-c3cncc4ccccc34)ccc2C1NC(=O)O[C@@H]1CN2CCC1CC2 (stereo partly shown) [Example 155]", "qualitative_label": "met"}
{"molecule": "O=C(NC1CCOc2cc(-c3ccc4nsnc4c3)ccc21)O[C@@H]1CN2CCC1CC2 (stereo partly shown) [Example 62]", "qualitative_label": "not met"}
{"molecule": "O=C(NC1CCOc2ccc(-c3ccc(Cl)cc3)cc21)O[C@@H]1CN2CCC1CC2 (stereo partly shown) [Example 88]", "qualitative_label": "not met"}
{"molecule": "CN1CCOc2cc(-c3ccc4c(c3)OCC(C)(C)C4NC(=O)O[C@@H]3CN4CCC3CC4)ccc21 (stereo partly shown) [Example 198]", "qualitative_label": "met"}
{"molecule": "CC1(C)COc2cc(-c3ccc4c(c3)OC(F)(F)O4)ccc2C1NC(=O)O[C@@H]1CN2CCC1CC2 (stereo partly shown) [Example 149]", "qualitative_label": "met"}
{"molecule": "CC(C)(C)c1cccc(-c2ccc3c(c2)OCC(C)(C)C3NC(=O)O[C@@H]2CN3CCC2CC3)c1 (stereo partly shown) [Example 152]", "qualitative_label": "met"}
{"molecule": "N#Cc1ccc(-c2ccc3c(c2)C(NC(=O)O[C@@H]2CN4CCC2CC4)CCO3)cc1 (stereo partly shown) [Example 100]", "qualitative_label": "not met"}
{"molecule": "O=C(NC1CCOc2cc(-c3ccc(F)cc3)ccc21)O[C@@H]1CN2CCC1CC2 (stereo partly shown) [Example 13]", "qualitative_label": "not met"}
{"molecule": "CN(C)c1cc(-c2ccc3c(c2)OCC(C)(C)C3NC(=O)O[C@@H]2CN3CCC2CC3)ccc1F (stereo partly shown) [Example 171]", "qualitative_label": "met"}

###

system: GM1 production in Jurkat cells; test: cells; type: cell-based; conditions: Homo sapiens, Jurkat, 72 h
endpoint: IC50

{"molecule": "O=C(NC1CCSc2ccc(-c3ccc(Cl)cc3)cc21)O[C@@H]1CN2CCC1CC2 (stereo partly shown) [Example 316]", "result": "251 nM"}
{"molecule": "COCOc1ccccc1-c1ccc2c(c1)OCCC2NC(=O)O[C@@H]1CN2CCC1CC2 (stereo partly shown) [Example 5]", "result": "29.2 nM"}
{"molecule": "CC1(C)COc2cc(-c3ccc4c(c3)CCO4)ccc2C1NC(=O)O[C@@H]1CN2CCC1CC2 (stereo partly shown) [Example 181]", "result": "5.55 nM"}
{"molecule": "COc1cc2c(cc1-c1ccc(F)cc1)OCC(C)(C)C2NC(=O)O[C@@H]1CN2CCC1CC2 (stereo partly shown) [Example 350]", "result": "7.5 nM"}

###

Molecular target: glucosylceramide synthase (GCS) (Homo sapiens)
Construct: The obtained supernatant was used
Sequence (Q16739 1-394): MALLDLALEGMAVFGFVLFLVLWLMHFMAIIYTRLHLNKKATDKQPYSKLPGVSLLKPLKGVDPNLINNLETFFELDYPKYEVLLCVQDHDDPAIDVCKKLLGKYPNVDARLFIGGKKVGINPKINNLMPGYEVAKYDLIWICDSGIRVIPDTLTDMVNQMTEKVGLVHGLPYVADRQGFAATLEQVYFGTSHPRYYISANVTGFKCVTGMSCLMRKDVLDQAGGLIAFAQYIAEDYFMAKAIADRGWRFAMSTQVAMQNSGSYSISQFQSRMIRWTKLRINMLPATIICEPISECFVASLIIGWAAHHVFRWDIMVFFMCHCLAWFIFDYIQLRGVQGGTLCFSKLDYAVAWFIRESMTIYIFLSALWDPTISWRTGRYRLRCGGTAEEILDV
Assay: GCS enzyme inhibition assay (A549 cell lysate, NBD C6-ceramide, HPLC fluorescence)
Settings: inhibitory activity against GCS, 37° C., 90 minutes

{"compound": "COc1ccc(-c2ccc3c(c2)OCCC3NC(=O)O[C@@H]2CN3CCC2CC3)cc1C(F)(F)F (stereo partly shown)", "units_text": "nM", "IC50": 3.93}
{"compound": "CC1(C)COc2cc(-c3cc4ccccc4s3)ccc2C1NC(=O)O[C@@H]1CN2CCC1CC2 (stereo partly shown)", "units_text": "nM", "IC50": 1.41}
{"compound": "COc1ncc(-c2ccc3c(c2)OCC(C)(C)C3NC(=O)O[C@@H]2CN3CCC2CC3)cc1Cl (stereo partly shown)", "units_text": "nM", "IC50": 1.57}
{"compound": "CC1(C)COc2cc(-c3ccc4nonc4c3)ccc2C1NC(=O)O[C@@H]1CN2CCC1CC2 (stereo partly shown)", "units_text": "nM", "IC50": 0.8}
